- Target entity: Radiation Leukemia Virus reverse transcriptase (Radiation murine leukemia virus, UniProt P11227)
- Construct: the reverse transcriptase of Radiation Leukemia Virus; endogenous in cells
- Test: Radiation Leukemia Virus reverse transcriptase assay, supernatants from infected AQR cells (Examples 4 and 9)
- Assay type: biochemical
- Condition notes: 2 micrograms; Table VIII
- Experimental: Supernatants (10 ml/tube) from B10.T(6R) cells (Meruelo et al. J. Exp. Med. 147: 470-487, 1978) chronically infected with Radiation Leukemia Virus (RadLV) were obtained by centrifugation of cells in culture at 4° C., 3500 rpm for 15 minutes. The top 2/3 of the supernatant were removed and aliquots were incubated for 30 minutes on ice with the indicated amounts of hypericin or protohypericin. […] The pellet was decanted and analyzed for reverse transcriptase activity as follows. […]
Attribute: Average CPM

Sample records with Average CPM:
Compound: CC(=O)Oc1cc(O)c2c(=O)c3c(O)cc(C)c4c5c(C)cc(O)c6c(=O)c7c(O)cc(OC(C)=O)c8c1c2c(c34)c(c65)c78 [WIS-6, hypericin diacetate]
Result: 94,199 CPM
--
Compound: CC(=O)Oc1cc(C)c2c3c(C)cc(OC(C)=O)c4cc5c(OC(C)=O)cc(OC(C)=O)c6c7c(OC(C)=O)cc(OC(C)=O)c8cc1c2c(c87)c(c43)c56 [WIS-4, desoxohypericinhexaacetate]
Result: 237,365 CPM
--
Compound: O=c1c2c(O)ccc3c4ccc(O)c5c(=O)c6c(O)cc(O)c7c8c(O)cc(O)c1c8c(c23)c(c54)c67 [WIS-3, desmethylhypericin]
Result: 15,467 CPM

Field: next compound
// lookup Average CPM for Cc1cc(O)c2cc3c(O)cc(O)c4c5c(O)cc(O)c6cc7c(O)cc(C)c8c1c2c(c34)c(c78)c65 [WIS-5, desoxyhypericin]
205,469 CPM

---

- Test system: virus budding in virus-producing cells
- Test: In vitro inhibition of virus budding: production of defective budded virions (Example 10)
- Assay type: cell-based
- Condition notes: in vitro; Table IX; read-out: EC50 for production of defective budded virions
Reported endpoint: EC50 (nM)
# number only, unit nM dropped from output

Compound: Cc1cc(O)c2c(=O)c3c(O)cc(O)c4c5c(O)cc(O)c6c(=O)c7c(O)cc(C)c8c1c2c(c34)c(c78)c65 [hypericin, Hypericin]
Target entity: virus budding in virus-producing cells
EC50 (nM): 200

Field: next compound
// lookup EC50 for O=c1c2c(O)ccc3c4ccc(O)c5c(=O)c6c(O)cc(O)c7c8c(O)cc(O)c1c8c(c23)c(c54)c67 [WIS-3, desmethylhypericin]
2000

---

- Target entity: Radiation Leukemia Virus reverse transcriptase (Radiation murine leukemia virus, UniProt P11227)
- Construct: the reverse transcriptase of Radiation Leukemia Virus; endogenous in cells
- Test: Radiation Leukemia Virus reverse transcriptase assay, supernatants from infected AQR cells (Examples 4 and 9)
- Format: biochemical
- Condition notes: 0.5 h; 10 micrograms; Table VIII; read-out: Average % Inhibition
Reported endpoint: inhibition at 0.01 mg (%)
# number only, unit % dropped from output

Compound: CC(=O)Oc1cc(C)c2c3c(C)cc(OC(C)=O)c4cc5c(OC(C)=O)cc(OC(C)=O)c6c7c(OC(C)=O)cc(OC(C)=O)c8cc1c2c(c87)c(c43)c56 [WIS-4, desoxohypericinhexaacetate]
Reported endpoint: inhibition at 0.01 mg
Measured number: 77.4

// lookup inhibition at 0.01 mg for CC(=O)Oc1cc(O)c2c(=O)c3c(O)cc(C)c4c5c(C)cc(O)c6c(=O)c7c(O)cc(OC(C)=O)c8c1c2c(c34)c(c65)c78 [WIS-6, hypericin diacetate]
82

Repeat with O=c1c2ccccc2c2c3c1c(O)cc(O)c3c1c(O)cc(O)c3c(=O)c4ccccc4c2c31 [WIS-2, Tetrahydroxy-dibenzoperylene-dione]
99.5

Repeat with Cc1cc(O)c2cc3c(O)cc(O)c4c5c(O)cc(O)c6cc7c(O)cc(C)c8c1c2c(c34)c(c78)c65
78.3
